Sourced from ChEMBL document CHEMBL1201861

# Tested on: NCI-H596;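 also: growth inhibition of NCI-H596 cells, read out with a cell viability assay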
# assay_notes: cells
# Format: functional, cell-based, Homo sapiens
# assay_setup: Homo sapiens, NCI-H596
# Description: SANGER: Inhibition of human NCI-H596 cell growth in a cell viability assay.
pIC50: −log10 of the molar value. Structures can show the parent of a compound that is named as a salt.
Let's look at some compounds and their measured pIC50.

Worked cases, answers included:
{"compound": "Cc1cn(-c2cc(NC(=O)c3ccc(C)c(Nc4nccc(-c5cccnc5)n4)c3)cc(C(F)(F)F)c2)cn1", "pIC50": "< 5.70"}
{"compound": "COc1cc2c(Nc3ccc(NC(=O)c4ccccc4)cc3)ncnc2cc1OCCCN1CCOCC1", "pIC50": "< 5.40"}
{"compound": "Cc1cc([N+](=O)[O-])ccc1NS(=O)(=O)c1cc(Cl)ccc1Cl", "pIC50": 5.10}

Inquiry: Fill in the blank: the reported pIC50 of CS(=O)(=O)c1ccc(C(=O)Nc2ccc(Cl)c(-c3ccccn3)c2)c(Cl)c1 is ____.
Reply text: < 5.00

Inquiry: Fill in the blank: the reported pIC50 of N#Cc1c(O)c2c(-c3ccc(-c4ccccc4O)cc3)csc2[nH]c1=O is ____.
Reply text: < 5.99

Inquiry: Fill in the blank: the reported pIC50 of COC1=CC(c2cc3ccccc3[nH]2)=N/C1=C\c1[nH]c(C)cc1C [OBATOCLAX MESYLATE] is ____.
Reply text: 6.63

====

# Tested on: MKN-28
# assay_notes: cells
# Format: functional, cell-based, Homo sapiens
# assay_setup: Homo sapiens, MKN-28
# Description: SANGER: Inhibition of human MKN28 cell growth in a cell viability assay.
parameter: IC50 (µM)
Give a bare numeral; the unit µM is implied.

Inquiry: Find the measured IC50: item Cc1cc([N+](=O)[O-])ccc1NS(=O)(=O)c1cc(Cl)ccc1Cl , target or system MKN-28.
Reply text: 4.37

Inquiry: Find the measured IC50: item Oc1ccc2ccccc2c1SSc1c(O)ccc2ccccc12 , target or system MKN-28.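 Also: cell viability assay read-out, IC50 reflects suppression of growth of human MKN-28 cells.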
Reply text: 17.3

====

# Tested on: BEN
# assay_notes: cells
# Type: functional, cell-based, Homo sapiens
# assay_setup: ben
# Description: SANGER: Inhibition of human BEN cell growth in a cell viability assay.
parameter: IC50 (µM)
Give a bare numeral; the unit µM is implied.

Inquiry: Fill in the blank: the reported IC50 of BLEOMYCIN is ____.
Reply text: 46

====

# Test system: PLC-PRF-5;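 also: growth inhibition of human PLC-PRF-5 cells, read out with a viability assay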
# assay_notes: cells
# Format: functional, cell-based, Homo sapiens
# assay_setup: Homo sapiens, PLC-PRF-5
# Description: SANGER: Inhibition of human PLC-PRF-5 cell growth in a cell viability assay.
pIC50: −log10 of the molar value.
Let's look at some compounds and their measured pIC50.

Worked cases, answers included:
{"smiles_record": "CCC/C=C/C=C/C(=O)O[C@H]1/C(=C/C(=O)OC)C[C@H]2C[C@H]([C@@H](C)O)OC(=O)C[C@H](O)C[C@@H]3C[C@H](OC(C)=O)C(C)(C)[C@](O)(C[C@@H]4C/C(=C/C(=O)OC)C[C@H](/C=C/C(C)(C)[C@]1(O)O2)O4)O3", "pIC50": "< 8.10"}
{"smiles_record": "Nc1ccn([C@@H]2O[C@H](CO)[C@@H](O)C2(F)F)c(=O)n1", "pIC50": "< 5.99"}
{"smiles_record": "Cc1cc([N+](=O)[O-])ccc1NS(=O)(=O)c1cc(Cl)ccc1Cl", "pIC50": 5.93}

Kindly review the next compound as well.
Inquiry: Fill in the blank: the reported pIC50 of N#Cc1c(O)c2c(-c3ccc(-c4ccccc4O)cc3)csc2[nH]c1=O is ____.
Reply text: < 5.99

====

# Test system: 8-MG-BA
# assay_notes: cells
# Assay type: functional, cell-based, Homo sapiens
# assay_setup: 8-mg-ba
# Description: SANGER: Inhibition of human 8-MG-BA cell growth in a cell viability assay.
parameter: IC50 (µM)
Give a bare numeral; the unit µM is implied.

Inquiry: Find the measured IC50: item CISPLATIN , target or system 8-MG-BA.
Reply text: 5.38

====

# Test system: HT-29;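 also: growth inhibition of human HT-29 cells, read out by a cell viability assay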
# assay_notes: cells
# Format: functional, cell-based, Homo sapiens
# assay_setup: Homo sapiens, HT-29
# Description: SANGER: Inhibition of human HT-29 cell growth in a cell viability assay.
pIC50: −log10 of the molar value.
parameter: pIC50

{"molecule": "CCC/C=C/C=C/C(=O)O[C@H]1/C(=C/C(=O)OC)C[C@H]2C[C@H]([C@@H](C)O)OC(=O)C[C@H](O)C[C@@H]3C[C@H](OC(C)=O)C(C)(C)[C@](O)(C[C@@H]4C/C(=C/C(=O)OC)C[C@H](/C=C/C(C)(C)[C@]1(O)O2)O4)O3 [BRYOSTATIN 1]", "pIC50": "< 8.10"}
{"molecule": "N#Cc1c(O)c2c(-c3ccc(-c4ccccc4O)cc3)csc2[nH]c1=O", "pIC50": "< 5.99"}

Kindly review the next molecule as well.
Inquiry: Fill in the blank: the reported pIC50 of CCN(CC)CCCCNc1ncc2cc(-c3cc(OC)cc(OC)c3)c(NC(=O)NC(C)(C)C)nc2n1 [PD-173074] is ____.
Reply text: < 5.70

====

# System: H9
# assay_notes: cells
# Format: functional, cell-based, Homo sapiens
# assay_setup: h9
# Description: SANGER: Inhibition of human H9 cell growth in a cell viability assay.
parameter: pIC50
The quantity pIC50 is defined as the negative base-10 logarithm of the molar concentration.

Inquiry: Fill in the blank: the reported pIC50 of CISPLATIN is ____.
Reply text: 5.44

====

# System: NCI-H1573
# assay_notes: cells
# Format: functional, cell-based, Homo sapiens
# assay_setup: nci-h1573
# Description: SANGER: Inhibition of human NCI-H1573 cell growth in a cell viability assay.
parameter: pIC50
The quantity pIC50 is defined as the negative base-10 logarithm of the molar concentration.

Inquiry: Fill in the blank: the reported pIC50 of BLEOMYCIN is ____.
Reply text: 3.57

====

# Test system: Daoy
# assay_notes: cells
# Format: functional, cell-based, Homo sapiens
# assay_setup: daoy
# Description: SANGER: Inhibition of human Daoy cell growth in a cell viability assay.
parameter: IC50 (nM)
Give a bare numeral; the unit nM is implied.

Inquiry: Find the measured IC50: item CISPLATIN , target or system Daoy.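 Also: daoy cell growth inhibition, read out as cell viability.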
Reply text: 1510

====

Let's look at some sequences and their measured IC50.
# System: OVCAR-3
# assay_notes: cells
# Format: functional, cell-based, Homo sapiens
# assay_setup: ovcar-3
# Description: SANGER: Inhibition of human OVCAR-3 cell growth in a cell viability assay.
Give a bare numeral; the unit µM is implied.

{"sequence_input": "BLEOMYCIN", "unit_descriptor": "µM", "IC50": 123}

Kindly review the next sequence as well.
Inquiry: Find the measured IC50: item CISPLATIN , target or system OVCAR-3.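 Also: growth inhibition of human OVCAR-3 cells, determined by a cell viability assay.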
Reply text: 696

====

# Tested on: SIG-M5;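 also: cell viability assay read-out, measuring how strongly growth of cultured human SIG-M5 cells is inhibited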
# assay_notes: cells
# Format: functional, cell-based, Homo sapiens
# assay_setup: Homo sapiens, SIG-M5
# Description: SANGER: Inhibition of human SIG-M5 cell growth in a cell viability assay.
parameter: IC50

{"molecule": "N[C@@H](CSC(c1ccccc1)(c1ccccc1)c1ccccc1)C(=O)O", "IC50": "2770 nM"}
{"molecule": "COc1cc2ncn(-c3cc(OCc4ccccc4S(C)(=O)=O)c(C#N)s3)c2cc1OC [GSK-319347A]", "IC50": "> 5000 nM"}
{"molecule": "Oc1ccc2ccccc2c1SSc1c(O)ccc2ccccc12", "IC50": "2100 nM"}

Kindly review the next molecule as well.
Inquiry: Fill in the blank: the reported IC50 of COc1cc(N2CCN(C)CC2)ccc1Nc1ncc2c(n1)N(C)c1ccccc1C(=O)N2C is ____.
Reply text: 5360 nM

====

# Tested on: DMS-273
# assay_notes: cells
# Format: functional, cell-based, Homo sapiens
# assay_setup: Homo sapiens, DMS-273
# Description: SANGER: Inhibition of human DMS-273 cell growth in a cell viability assay.
pIC50: −log10 of the molar value. Structures can show the parent of a compound that is named as a salt.
Let's look at some compounds and their measured pIC50.

Worked cases, answers included:
{"compound": "CCC/C=C/C=C/C(=O)O[C@H]1/C(=C/C(=O)OC)C[C@H]2C[C@H]([C@@H](C)O)OC(=O)C[C@H](O)C[C@@H]3C[C@H](OC(C)=O)C(C)(C)[C@](O)(C[C@@H]4C/C(=C/C(=O)OC)C[C@H](/C=C/C(C)(C)[C@]1(O)O2)O4)O3", "pIC50": "< 8.10"}
{"compound": "Cc1cc([N+](=O)[O-])ccc1NS(=O)(=O)c1cc(Cl)ccc1Cl", "pIC50": 6.14}
{"compound": "COC1=CC(c2cc3ccccc3[nH]2)=N/C1=C\\c1[nH]c(C)cc1C [OBATOCLAX MESYLATE]", "pIC50": 7.55}
{"compound": "CC1(C)CNc2cc(NC(=O)c3cccnc3NCc3ccncc3)ccc21", "pIC50": "< 5.70"}
{"compound": "COc1cccc2c1C(=O)c1c(O)c3c(c(O)c1C2=O)C[C@@](O)(C(=O)CO)C[C@@H]3O[C@H]1C[C@H](N)[C@H](O)[C@H](C)O1", "pIC50": 7.10}

Inquiry: Fill in the blank: the reported pIC50 of Oc1ccc2ccccc2c1SSc1c(O)ccc2ccccc12 is ____.
Reply text: < 4.49

Inquiry: Fill in the blank: the reported pIC50 of Nc1cccc2c1CN(C1CCC(=O)NC1=O)C2=O (stereo not drawn) [LENALIDOMIDE] is ____.
Reply text: < 5.30

Inquiry: Fill in the blank: the reported pIC50 of C=C(c1ccc(C(=O)O)cc1)c1cc2c(cc1C)C(C)(C)CCC2(C)C is ____.
Reply text: < 5.10
